This collection of values is drawn from patent US20090203577A1.

method.description: physchem
settings: pH 7.4, aqueous buffer, kinetic from dmso stock

chemical.smiles: CC(C)OC(=O)C1=CN(C(=O)N2CCNCC2)CC(C)(C)c2c1[nH]c1ccccc21
solubility kinetic at 1.5 h: > 10 µM
//
chemical.smiles: Cc1ccc(C(=O)N2C=C(C(=O)OC(C)C)c3[nH]c4ccccc4c3C(C)(C)C2)cc1F
solubility kinetic at 1.5 h: 1 to 10 µM
//
chemical.smiles: CCN(CC)C1CCN(C(=O)N2C=C(C(=O)OC(C)C)c3[nH]c4ccccc4c3C(C)(C)C2)CC1
solubility kinetic at 1.5 h: > 10 µM
//
chemical.smiles: CC(C)OC(=O)C1=CN(C(=O)c2ccc(C(F)(F)F)c(F)c2F)CC(C)(C)c2c1[nH]c1ccccc21
solubility kinetic at 1.5 h: 0.1 to 1 µM
//
chemical.smiles: CCNC(=O)N1CCN(Cc2cccc(C(=O)N3C=C(C(=O)OC(C)C)c4[nH]c5ccccc5c4C(C)(C)C3)c2)CC1
solubility kinetic at 1.5 h: 1 to 10 µM
//
chemical.smiles: CC(C)OC(=O)C1=CN(C(=O)N2CCC[C@H](CN3CCOCC3)C2)CC(C)(C)c2c1[nH]c1ccccc21
solubility kinetic at 1.5 h: > 10 µM
//
chemical.smiles: CC(C)OC(=O)C1=CN(C(=O)c2ccc(Cl)cc2)CC(C)(C)c2c1[nH]c1ccccc21
solubility kinetic at 1.5 h: 1 to 10 µM

====

Let's look at some compounds and their measured Emax.
experimental.target: human farnesoid X receptor (Homo sapiens)
Construct: CMX-farnesoid X receptor (full length human farnesoid X receptor); expressed in transfected cells; host or cells: CV-1 African Green Monkey Kidney cells
Sequence (Q96RI1 1-472 isoform Q96RI1-2): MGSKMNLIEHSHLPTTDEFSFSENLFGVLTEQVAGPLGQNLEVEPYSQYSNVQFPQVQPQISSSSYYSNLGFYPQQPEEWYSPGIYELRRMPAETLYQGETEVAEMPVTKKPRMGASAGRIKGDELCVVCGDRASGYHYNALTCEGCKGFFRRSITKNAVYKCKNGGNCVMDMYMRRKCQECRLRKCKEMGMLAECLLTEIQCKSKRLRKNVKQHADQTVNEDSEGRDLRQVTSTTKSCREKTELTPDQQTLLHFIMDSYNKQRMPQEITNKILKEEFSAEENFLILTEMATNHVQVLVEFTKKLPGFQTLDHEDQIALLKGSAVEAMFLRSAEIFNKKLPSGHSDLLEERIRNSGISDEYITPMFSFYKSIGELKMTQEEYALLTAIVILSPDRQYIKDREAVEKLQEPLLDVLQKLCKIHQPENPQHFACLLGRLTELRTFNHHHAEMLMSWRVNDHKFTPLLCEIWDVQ
Sequence (P19793 whole entry partner): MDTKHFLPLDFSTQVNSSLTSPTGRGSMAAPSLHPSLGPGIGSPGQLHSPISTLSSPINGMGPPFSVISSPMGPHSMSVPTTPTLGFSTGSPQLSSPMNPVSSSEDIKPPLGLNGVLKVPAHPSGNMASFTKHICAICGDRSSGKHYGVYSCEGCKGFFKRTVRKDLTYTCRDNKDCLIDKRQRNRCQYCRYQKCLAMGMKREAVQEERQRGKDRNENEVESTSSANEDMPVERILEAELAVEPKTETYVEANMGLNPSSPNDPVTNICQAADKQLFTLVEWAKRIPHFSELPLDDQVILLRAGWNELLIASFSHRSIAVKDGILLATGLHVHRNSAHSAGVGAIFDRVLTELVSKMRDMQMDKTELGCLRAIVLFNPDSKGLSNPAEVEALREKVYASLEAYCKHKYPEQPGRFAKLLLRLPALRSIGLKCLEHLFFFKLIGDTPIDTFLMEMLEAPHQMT
method.description: FXR in vitro assays (farnesoid X receptor/ECREx7 co-transfection assay, TR-FRET assay), Table I
Format: cell-based
settings: read-out: % Efficacy

compound: CC(=O)N1CCN(Cc2cccc(C(=O)N3C=C(C(=O)OC(C)C)c4[nH]c5ccccc5c4C(C)(C)C3)c2)CC1
Emax: > 100%

compound: CC(C)OC(=O)C1=CN(C(=O)c2cccc(CN3CCCCCCC3)c2)CC(C)(C)c2c1[nH]c1ccccc21
Emax: > 100%

compound: COc1ccccc1C(=O)N1C=C(C(=O)OC(C)C)c2[nH]c3ccccc3c2C(C)(C)C1
Emax: > 100%

compound: CNC(=O)Oc1ccc2c3c([nH]c2c1)C(C(=O)OC(C)C)=CN(C(=O)c1ccc(F)c(F)c1)CC3(C)C
Emax: < 40%

compound: CC(C)OC(=O)C1=CN(C(=O)c2cccc(CN3CCN(C(=O)C4CC4)CC3)c2)CC(C)(C)c2c1[nH]c1ccccc21
Emax: > 100%

compound: CC(C)OC(=O)C1=CN(C(=O)N2CCC[C@H](CN3CCCCC3)C2)CC(C)(C)c2c1[nH]c1ccccc21
Emax: 80 to 100%

compound: CC(C)OC(=O)C1=CN(C(=O)c2ccc(C(F)(F)F)c(F)c2)CC(C)(C)c2c1[nH]c1ccccc21
Emax: > 100%

compound: CC(C)OC(=O)C1=CN(C(=O)N2CCCC(CN(C)C)C2)CC(C)(C)c2c1[nH]c1ccccc21 (centres unmarked)
Emax: > 100%

compound: CC(C)OC(=O)C1=CN(C(=O)c2ccc(Cl)c(Cl)c2)CC(C)(C)c2c1[nH]c1ccccc21
Emax: > 100%

compound: Cc1ccccc1C(=O)N1C=C(C(=O)OC(C)C)c2[nH]c3ccccc3c2C(C)(C)C1
Emax: > 100%

compound: CC(CO)OC(=O)C1=CN(C(=O)c2ccc(F)c(F)c2)CC(C)(C)c2c1[nH]c1ccccc21 (centres unmarked)
Emax: > 100%

compound: COC(=O)C1=CN(C(=O)c2ccc(F)c(F)c2)CC(C)(C)c2c1[nH]c1ccccc21
Emax: > 100%

compound: CC(C)OC(=O)C1=CN(C(=O)c2ccc(-n3cccn3)cc2)CC(C)(C)c2c1[nH]c1ccccc21
Emax: > 100%

compound: CC(C)OC(=O)C1=CN(C(=O)c2cccc(F)c2F)CC(C)(C)c2c1[nH]c1ccccc21
Emax: > 100%

compound: CC(C)OC(=O)C1=CN(C(=O)c2ccc(F)c(Br)c2)CC(C)(C)c2c1[nH]c1ccccc21
Emax: > 100%

compound: CC(C)OC(=O)C1=CN(C(=O)c2c(F)cccc2F)CC(C)(C)c2c1[nH]c1ccccc21
Emax: > 100%

compound: CC(C)OC(=O)C1=CN(C(=O)c2cccc(CCl)c2)CC(C)(C)c2c1[nH]c1ccccc21
Emax: > 100%

compound: CC(C)OC(=O)C1=CN(C(=O)c2cccc(CN3CCN(C(=O)OC(C)(C)C)CC3)c2)CC(C)(C)c2c1[nH]c1ccccc21
Emax: > 100%

compound: CC(C)OC(=O)C1=CN(C(=O)c2cc(CN3CCOCC3)ccc2F)CC(C)(C)c2c1[nH]c1ccccc21
Emax: > 100%

compound: CC(C)OC(=O)C1=CN(C(=O)c2ccccc2F)CC(C)(C)c2c1[nH]c1ccccc21
Emax: > 100%

compound: CC(C)OC(=O)C1=CN(C(=O)N2CCCN(C)CC2)CC(C)(C)c2c1[nH]c1ccccc21
Emax: > 100%

compound: CC(C)OC(=O)C1=CN(C(=O)N2CCC[C@H](CN3CCOCC3)C2)CC(C)(C)c2c1[nH]c1ccccc21
Emax: > 100%

compound: CC(C)OC(=O)C1=CN(C(=O)c2cccc(OCCN3CCOCC3)c2)CC(C)(C)c2c1[nH]c1ccccc21
Emax: > 100%

compound: CC(C)OC(=O)C1=CN(C(=O)c2cccc(CN3CCN(S(C)(=O)=O)CC3)c2)CC(C)(C)c2c1[nH]c1ccccc21
Emax: > 100%

compound: CC(C)OC(=O)C1=CN(C(=O)N2CCN(C(C)C)CC2)CC(C)(C)c2c1[nH]c1ccccc21
Emax: > 100%

compound: CC(C)OC(=O)C1=CN(C(=O)c2ccccc2Br)CC(C)(C)c2c1[nH]c1ccccc21
Emax: > 100%

compound: CC(C)OC(=O)C1=CN(C(=O)c2ccccc2OC(F)(F)F)CC(C)(C)c2c1[nH]c1ccccc21
Emax: > 100%

compound: CC(C)OC(=O)C1=CN(C(=O)c2cc(C(F)(F)F)cc(C(F)(F)F)c2)CC(C)(C)c2c1[nH]c1ccccc21
Emax: > 100%

compound: CC(C)OC(=O)C1=CN(C(=O)N2CCCN(Cc3ccccc3)CC2)CC(C)(C)c2c1[nH]c1ccccc21
Emax: > 100%
